Values from patent US20190359687A1

Molecular target: T1, recombinant human GPA ectodomain (human, UniProt P02724 20-91)
T1 construct: also called recombinant hGPA ECD; recGPA
T1 sequence: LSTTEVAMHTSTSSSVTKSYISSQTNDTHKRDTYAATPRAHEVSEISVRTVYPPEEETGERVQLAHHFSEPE
Assay: ELISA, rec hGPA ectodomain
// reported binding by ELISA relative to parental for each item listed

binder	binding by ELISA relative to parental
TPP-5352 (Fab, V domains shown, also called VL: (H88Q)) VH: EVQLVQSGAEVKKPGASVKVSCKASGYTFTTYTIHWVRQAPGQGLEWIGYINPSSDYTRYNPKFKDRVTLTTDKSTSTAYMELRSLRSDDTAVYYCQTGTRDYWGQGTTVTVSS VL: DIQLTQSPSFLSASVGDRVTITCSAASSVSYIYWFQQKPGKAPKLLIYSTSTLPSGVPSRFSGSGSGTEYTLTISSLQPEDFATYYCQQRNSFPFTFGQGTKLEIKR	0.26
TPP-5327 (Fab, V domains shown, also called VH: (P62Q)) VH: EVQLVQSGAEVKKPGASVKVSCKASGYTFTTYTIHWVRQAPGQGLEWIGYINPSSDYTRYNQKFKDRVTLTTDKSTSTAYMELRSLRSDDTAVYYCQTGTRDYWGQGTTVTVSS VL: DIQLTQSPSFLSASVGDRVTITCSAASSVSYIYWFQQKPGKAPKLLIYSTSTLPSGVPSRFSGSGSGTEYTLTISSLQPEDFATYYCHQRNSFPFTFGQGTKLEIKR	0.99
TPP-5334 (Fab, V domains shown, also called VH: (D89E)) VH: EVQLVQSGAEVKKPGASVKVSCKASGYTFTTYTIHWVRQAPGQGLEWIGYINPSSDYTRYNPKFKDRVTLTTDKSTSTAYMELRSLRSEDTAVYYCQTGTRDYWGQGTTVTVSS VL: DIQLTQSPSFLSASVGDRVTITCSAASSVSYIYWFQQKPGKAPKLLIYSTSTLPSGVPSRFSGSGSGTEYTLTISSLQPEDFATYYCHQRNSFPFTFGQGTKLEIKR	0.89
